# system: HIV integrase (Human immunodeficiency virus type 1 group M subtype B, UniProt P12497, F1332H)
# Construct: HIV integrase full length gene
# assay-comment: Determination of enzyme (HIV integrase) inhibitory activity
# reported-conditions: recombinant HIV integrase (F185H), strand transfer ELISA, absorbance at 450 nm
pIC50: −log10 of the molar value. Counter-ions that a name gives are not always drawn.
parameter: pIC50

> print(dat)
                                    molecule        result
 1  CN(C)c1ccc(CNC(=O)c2cn3c(c(O)c2=O)C(=O)N(Cc2ccc(F)cc2)CC3)cc1 [Example 415, hydrochloride]  7.00 to 8.00
 2  O=Cc1cn(Cc2cccc(Cl)c2)c(=O)c2c(O)c(=O)ccn12 [Example 101]  7.00 to 8.00
 3  COCc1c(C(=O)C(C)(C)C)c(=O)c(O)c2n1CCN(Cc1ccc(F)cc1)C2=O [Example 409, hydrochloride]  7.00 to 8.00
 4  O=C1c2c(O)c(=O)c(-c3cccnn3)cn2CCN1Cc1cccc(Cl)c1 [Example 290, hydrochloride]  7.00 to 8.00
 5  COC(=O)c1cn(Cc2cccc(Cl)c2)c(=O)c2c(O)c(=O)ccn12 [Example 93]  7.00 to 8.00
 6  O=Cc1cc(=O)c(O)c2n1CCN(Cc1ccc(Cl)c(Cl)c1)C2=O [Example 48]  7.00 to 8.00
 7  CC(=O)Nc1cn2ccn(CCCc3c(F)cccc3Cl)c(=O)c2c(O)c1=O [Example 324]  7.00 to 8.00
 8  CC(C)Oc1cc(Cl)ccc1CN1CCn2cc(-c3nccs3)c(=O)c(O)c2C1=O [Example 358, hydrochloride]  7.00 to 8.00
 9  O=c1c(S(=O)(=O)c2ccccc2)cn2ccn(Cc3cccc(Cl)c3)c(=O)c2c1O [Example 237]  7.00 to 8.00
10  CS(=O)(=O)Nc1cn2ccn(Cc3ccc(F)cc3)c(=O)c2c(O)c1=O [Example 305]        > 8.00
11  CC(C)(C)COC(=O)c1cn2ccn(Cc3cccc(Cl)c3)c(=O)c2c(O)c1=O [Example 159]  7.00 to 8.00
12  COCC1CN(Cc2ccc(Cl)c(Cl)c2)C(=O)c2c(O)c(=O)ccn21 (stereo not drawn) [Example 29]  7.00 to 8.00
13  O=C1c2c(O)c(=O)c(-c3nccs3)cn2CCN1Cc1ccc(F)cc1 [Example 309]  7.00 to 8.00
14  O=c1c(-c2cccc(Cl)c2)cn2ccn(Cc3cccc(Cl)c3)c(=O)c2c1O [Example 112, hydrochloride]  7.00 to 8.00
15  O=C(NCCOC(=O)C(F)(F)F)c1cn2ccn(Cc3cccc(Cl)c3)c(=O)c2c(O)c1=O [Example 177]  7.00 to 8.00
16  CC(C)(C)C(=O)c1cn2c(c(O)c1=O)C(=O)N(CCCc1c(F)cccc1Cl)CC2 [Example 336]        > 8.00
17  Cn1ccnc1-c1cn2ccn(Cc3cccc(Cl)c3)c(=O)c2c(O)c1=O [Example 148, hydrochloride]  7.00 to 8.00
18  CN(C)C(=O)c1cc(=O)c(O)c2n1CCN(Cc1ccc(Cl)c(Cl)c1)C2=O [Example 24]  7.00 to 8.00
19  CCCOc1cc(Cl)cc(CN2CCn3cc(-c4nccs4)c(=O)c(O)c3C2=O)c1 [Example 396, hydrochloride]  7.00 to 8.00
20  CC(C)(C)C(O)c1cc(=O)c(O)c2n1CCN(Cc1ccc(Cl)c(Cl)c1)C2=O (stereo not drawn) [Example 68]  7.00 to 8.00
21  O=C1c2c(O)c(=O)ccn2C(c2ccccc2)CN1Cc1ccc(Cl)c(Cl)c1 (stereo not drawn) [Example 15]  7.00 to 8.00
22  O=C(Nc1cn2c(c(O)c1=O)C(=O)N(Cc1cccc(Cl)c1)CC2)c1ccncc1 [Example 346, hydrochloride]  7.00 to 8.00
23  O=c1ccn2ccn(CCCc3ccccc3Cl)c(=O)c2c1O [Example 71]  7.00 to 8.00
24  O=C1c2c(O)c(=O)c(-c3nccs3)cn2CCN1Cc1cccc(Cl)c1F [Example 292]        > 8.00
25  O=c1ccn2ccn(Cc3ccc(Br)cc3)c(=O)c2c1O [Example 157, hydrochloride]  7.00 to 8.00
26  O=C1c2c(O)c(=O)c(-c3nccs3)cn2CCN1CCCc1cccc(Cl)c1F [Example 312]  7.00 to 8.00
27  CNC(=O)c1cn2c(c(O)c1=O)C(=O)N(Cc1cccc(Cl)c1F)CC2 [Example 361]  7.00 to 8.00
28  CC(CCN1CCn2cc(-c3nccs3)c(=O)c(O)c2C1=O)c1ccccc1 (stereo not drawn) [Example 351, hydrochloride]  7.00 to 8.00
29  COc1cc(Cl)ccc1CN1CCn2cc(-c3nccs3)c(=O)c(O)c2C1=O [Example 295]  7.00 to 8.00
30  CC(C)(C)C(=O)c1cn2c(c(O)c1=O)C(=O)N(Cc1ccc(F)cc1)CC2(C)C [Example 412, hydrochloride]  7.00 to 8.00
31  Cn1cc2c(c(O)c1=O)C(=O)N(Cc1cccc(C(F)(F)F)c1)CC2 [Example 143]  6.00 to 7.00
32  O=C1c2c(O)c(=O)ccn2CCN1Cc1ccc(F)c(Cl)c1 [Example 64]  7.00 to 8.00
33  CS(=O)(=O)Oc1c(=O)c(Br)cn2ccn(Cc3cccc(Cl)c3)c(=O)c12 [Example 109]  6.00 to 7.00
